melting point less than 70 °C is T; melting point greater than or equal to 70 °C is F.

Sample answers from the record:
- compound: "N#Cc1ccc(N)c2ccccc12"
  class-label: "F"
- compound: "C1CCCNCCC1"
  class-label: "T"
- compound: "Nc1cc(Cl)c(Cl)cc1Cl"
  class-label: "F"
- compound: "CC(C)(C)C1CCC(O)CC1 (configuration not stated)"
  class-label: "T"
- compound: "OCc1ccc2c(c1)OCO2"
  class-label: "T"
- compound: "c1ccc(Oc2ccccc2)cc1"
  class-label: "T"
- compound: "CCCCCS(=O)(=O)O"
  class-label: "T"
- compound: "ClC1=C(Cl)[C@]2(Cl)[C@@H]3[C@@H]4C[C@@H]([C@H]5O[C@@H]45)[C@@H]3[C@@]1(Cl)C2(Cl)Cl (single isomer, unassigned)"
  class-label: "F"
- compound: "CC(C)OC(=O)c1cc(-c2nn(C)c(C(F)(F)F)c2Br)c(F)cc1Cl"
  class-label: "F"
- compound: "O=[N+]([O-])c1ccc(CCO)cc1"
  class-label: "T"

QUERY: For CC(C)[C@H](C)CC[C@@H](C)[C@H]1CC[C@H]2[C@@H]3CC=C4C[C@@H](O)CC[C@]4(C)[C@H]3CC[C@]12C , is the recorded melting point below the cut-off of 70 °C?
RESULT: F
